Data provenance: patent US20250051356A1

Test system: M. abscessus subsp. abscessus ATCC 19977
protocol: MIC against M. abscessus in Middlebrook 7H9 + ADC
Format: cell-based
details: Mycobacteroides abscessus, ATCC19977; ATCC 19977; 7H9 + ADC; read-out: MIC M. abscessus
reported_endpoint: MIC (µg/mL)
Give your result in µg/mL as a bare value.

# count of solved cases: 5
CO[C@H]1/C=C/O[C@@]2(C)Oc3c(C)c(O)c4c(c3C2=O)C2=NC3(CCN(CC(C)C)CC3)NC2=C(NC(=O)/C(C)=C\C=C\[C@H](C)[C@H](O)[C@@H](C)[C@@H](O)[C@@H](C)[C@H](OC(=O)CC(=O)N2CCCN(Cc3ccncc3)CC2)[C@@H]1C)C4=O = 0.25
CO[C@H]1/C=C/O[C@@]2(C)Oc3c(C)c(O)c4c(c3C2=O)C2=NC3(CCN(CC(C)C)CC3)NC2=C(NC(=O)/C(C)=C\C=C\[C@H](C)[C@H](O)[C@@H](C)[C@@H](O)[C@@H](C)[C@H](OC(=O)CC(=O)NCCCN(C)C)[C@@H]1C)C4=O = 1
CO[C@H]1/C=C/O[C@@]2(C)Oc3c(C)c(O)c4c(c3C2=O)C2=NC3(CCN(CC(C)C)CC3)NC2=C(NC(=O)/C(C)=C\C=C\[C@H](C)[C@H](O)[C@@H](C)[C@@H](O)[C@@H](C)[C@H](OC(=O)CC(=O)N2CCCN(Cc3ccc(F)cc3)CC2)[C@@H]1C)C4=O = 0.125
CO[C@H]1/C=C/O[C@@]2(C)Oc3c(C)c(O)c4c(c3C2=O)C2=NC3(CCN(CC(C)C)CC3)NC2=C(NC(=O)/C(C)=C\C=C\[C@H](C)[C@H](O)[C@@H](C)[C@@H](O)[C@@H](C)[C@H](OC(=O)CC(=O)N2CCN(Cc3ccccn3)CC2)[C@@H]1C)C4=O = 0.25
CO[C@H]1/C=C/O[C@@]2(C)Oc3c(C)c(O)c4c(c3C2=O)C2=NC3(CCN(CC(C)C)CC3)NC2=C(NC(=O)/C(C)=C\C=C\[C@H](C)[C@H](O)[C@@H](C)[C@@H](O)[C@@H](C)[C@H](OC(=O)CC(=O)N2CCCN(c3cccc(C(F)(F)F)n3)CC2)[C@@H]1C)C4=O = 0.25

Provide value of MIC for this record tested with M. abscessus subsp. abscessus ATCC 19977: CO[C@H]1/C=C/O[C@@]2(C)Oc3c(C)c(O)c4c(c3C2=O)C2=NC3(CCN(CC(C)C)CC3)NC2=C(NC(=O)/C(C)=C\C=C\[C@H](C)[C@H](O)[C@@H](C)[C@@H](O)[C@@H](C)[C@H](OC(=O)CC(=O)N2CCN(C3CCN(C)CC3)CC2)[C@@H]1C)C4=O
1

Same thing, different molecule: CO[C@H]1/C=C/O[C@@]2(C)Oc3c(C)c(O)c4c(c3C2=O)C2=NC3(CCN(CC(C)C)CC3)NC2=C(NC(=O)/C(C)=C\C=C\[C@H](C)[C@H](O)[C@@H](C)[C@@H](O)[C@@H](C)[C@H](OC(=O)CCC(=O)NCCN(C)C)[C@@H]1C)C4=O
1

Same thing, different molecule: CO[C@H]1/C=C/O[C@@]2(C)Oc3c(C)c(O)c4c(c3C2=O)C2=NC3(CCN(CC(C)C)CC3)NC2=C(NC(=O)/C(C)=C\C=C\[C@H](C)[C@H](O)[C@@H](C)[C@@H](O)[C@@H](C)[C@H](OC(=O)CC(=O)N2CCN(c3ccccc3)CC2)[C@@H]1C)C4=O
0.125

Same thing, different molecule: CCOC(=O)CCNC(=O)CC(=O)O[C@H]1[C@H](C)[C@H](O)[C@H](C)[C@@H](O)[C@@H](C)/C=C/C=C(/C)C(=O)NC2=C3NC4(CCN(CC(C)C)CC4)N=C3c3c(c(O)c(C)c4c3C(=O)[C@@](C)(O/C=C/[C@H](OC)[C@H]1C)O4)C2=O
2

Same thing, different molecule: CO[C@H]1/C=C/O[C@@]2(C)Oc3c(C)c(O)c4c(c3C2=O)C2=NC3(CCN(CC(C)C)CC3)NC2=C(NC(=O)/C(C)=C\C=C\[C@H](C)[C@H](O)[C@@H](C)[C@@H](O)[C@@H](C)[C@H](OC(=O)CC(=O)N2CCC(CCc3ccccc3)CC2)[C@@H]1C)C4=O
0.25
